assay-summary: self-splicing fitness, log relative to wild type (ln ratio); higher = more splicing; Tetrahymena group I intron in knt gene, E. coli kanamycin selection, DiMSum; sequences stand for … in CUCUCU…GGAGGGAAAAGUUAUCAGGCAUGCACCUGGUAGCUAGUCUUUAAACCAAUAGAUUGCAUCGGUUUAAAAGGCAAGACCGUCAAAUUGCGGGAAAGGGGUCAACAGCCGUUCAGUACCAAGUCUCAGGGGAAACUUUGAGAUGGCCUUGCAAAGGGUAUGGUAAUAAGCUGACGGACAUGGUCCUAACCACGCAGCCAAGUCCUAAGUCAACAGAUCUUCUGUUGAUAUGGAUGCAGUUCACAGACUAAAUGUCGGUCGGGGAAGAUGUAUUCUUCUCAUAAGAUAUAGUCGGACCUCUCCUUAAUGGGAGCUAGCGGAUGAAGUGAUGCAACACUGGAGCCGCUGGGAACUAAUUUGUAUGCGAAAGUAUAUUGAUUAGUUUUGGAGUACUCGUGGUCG;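 also: selection with 25 µg/mL kanamycin versus none on LB agar overnight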
condition-description: 37 °C
For each record, write down the corresponding self-splicing fitness (ln).
// no unit string in output, number only

Exam item: I have this sequence here, `GUAUAGCAAUAUUACGUCGG` , and I need its recorded self-splicing fitness (ln).
Marked response: -1.31

Exam item: Reported self-splicing fitness (ln), sequence `AACAAGCAAUAUUACGAAUG` : ____
Marked response: -1.97

Exam item: Fill in: self-splicing fitness (ln) of `UAACAGCAAUAUUACGGGAG` is ___
Marked response: -1.62

Exam item: What does the data say about its self-splicing fitness (ln)? Entry: `UUUAAGCAAUAUUACGAGGA`
Marked response: -1.22

Exam item: Given `AUGGAGCAAUAUUACGCAGU` , state its recorded self-splicing fitness (ln).
Marked response: -3.17

Exam item: Quick one: self-splicing fitness (ln) of `CCAAAGCAAUAUUACGGGAC` ?
Marked response: -3.32

Exam item: GET /values?readout=self-splicing fitness (ln)&item= `UGCGAGCAAUAUUACGGGAA`
Marked response: -2.5

Exam item: Need self-splicing fitness (ln) of `UCCAAGCAAUAUUACGGGUA` , thanks.
Marked response: 0.199

Exam item: Value lookup for self-splicing fitness (ln); key = `CCUGAGCAAUAUUACGAUGC`
Marked response: -2.75

Exam item: Requested field: self-splicing fitness (ln). Item: `UAUGAGCAAUAUUACGAGUA`
Marked response: -0.862

Exam item: For the sequence shown here, `GGUGAGCAAUAUUACGCGAC` , give the reported self-splicing fitness (ln).
Marked response: -3.12

Exam item: Recorded self-splicing fitness (ln) of `CAUAAGCAAUAUUACGGACC` , please.
Marked response: -3.87

Exam item: Reported self-splicing fitness (ln) for `GAAUAGCAAUAUUACGCCUU` : what is it?
Marked response: 0.111

Exam item: May I ask what self-splicing fitness (ln) has been recorded for `AAAUAGCAAUAUUACGCGGU` ?
Marked response: -1.93

Exam item: May I ask what self-splicing fitness (ln) has been recorded for `AAUCAGCAAUAUUACGAGUG` ?
Marked response: -0.281

Exam item: Record request: self-splicing fitness (ln) value, item `UUACAGCAAUAUUACGCCGA`
Marked response: -0.354

Exam item: Please look up its self-splicing fitness (ln): `CAAAAGCAAUAUUACGACAU`
Marked response: -1.34

Exam item: Returns the measured self-splicing fitness (ln) for the input sequence. Input: `UGACAGCAAUAUUACGGUGU`
Marked response: -2.52

Exam item: What does the record list as self-splicing fitness (ln) for `UGCCAGCAAUAUUACGUCUU` ?
Marked response: -1.86

Exam item: I'd like to know its self-splicing fitness (ln). The sequence in question is `CAUUAGCAAUAUUACGCGUC`
Marked response: -2.01

Exam item: Return reported self-splicing fitness (ln); argument: `GUACAGCAAUAUUACGGUGC`
Marked response: -2.22

Exam item: Can you share its self-splicing fitness (ln)? I mean this sequence: `GGGCAGCAAUAUUACGCAAU`
Marked response: -0.127

Exam item: Returns the measured self-splicing fitness (ln) for the input sequence. Input: `UUUCAGCAAUAUUACGGCAG`
Marked response: 0.0981

Exam item: Any idea what its self-splicing fitness (ln) is? The sequence is `ACCGAGCAAUAUUACGGUGU`
Marked response: -2.15

Exam item: self-splicing fitness (ln) for `UCUGAGCAAUAUUACGCAAU` ?
Marked response: -2.97

Exam item: Find the recorded self-splicing fitness (ln) belonging to `AGCAAGCAAUAUUACGCGCG` and report it.
Marked response: -0.145

Exam item: Using the record for `CGCAAGCAAUAUUACGGUUC` , report its self-splicing fitness (ln).
Marked response: -2.6

Exam item: Sample `UAGAAGCAAUAUUACGCUGU` — what was its self-splicing fitness (ln)?
Marked response: -0.977

Exam item: If you can, please state the reported self-splicing fitness (ln) value of `UAACAGCAAUAUUACGCAUC` .
Marked response: -2.51

Exam item: Name the recorded self-splicing fitness (ln) for `AAUUAGCAAUAUUACGCAUA` .
Marked response: -2.07

Exam item: For the sequence `UGGUAGCAAUAUUACGGUUA` , what self-splicing fitness (ln) is on record?
Marked response: 0.439

Exam item: Name the reported self-splicing fitness (ln) value associated with the sequence `ACACAGCAAUAUUACGUGCA`
Marked response: -0.395

Exam item: What self-splicing fitness (ln) value was documented for this sequence, `GUUCAGCAAUAUUACGCCCG` ?
Marked response: -0.196

Exam item: Reported self-splicing fitness (ln), sequence `UAAAAGCAAUAUUACGGCAG` : ____
Marked response: -0.106

Exam item: Query (sequence): `UAUCAGCAAUAUUACGGACC` ; field requested: self-splicing fitness (ln)
Marked response: -1.39

Exam item: Bench note: what self-splicing fitness (ln) did `UAUUAGCAAUAUUACGAUCG` show?
Marked response: 0.607

Exam item: # query: self-splicing fitness (ln) of entry `GUGUAGCAAUAUUACGGCAG`
Marked response: -0.824

Exam item: Report self-splicing fitness (ln) for `AGAUAGCAAUAUUACGGGUA` please.
Marked response: -1.8

Exam item: Looking for the measured self-splicing fitness (ln) of `ACCAAGCAAUAUUACGACUG` , can you help?
Marked response: -1.07

Exam item: // lookup self-splicing fitness (ln) for `GUGGAGCAAUAUUACGCGGU`
Marked response: -0.344

Exam item: self-splicing fitness (ln) for `GCUGAGCAAUAUUACGAGGU` ?
Marked response: -1.74

Exam item: Given `ACCUAGCAAUAUUACGGGGU` , state its recorded self-splicing fitness (ln).
Marked response: -2.61

Exam item: Report self-splicing fitness (ln) for `ACGGAGCAAUAUUACGAAAC` please.
Marked response: -1.46

Exam item: Look at this sequence and give its reported self-splicing fitness (ln). `ACAUAGCAAUAUUACGGCGA`
Marked response: -0.0687

Exam item: # get_value(readout='self-splicing fitness (ln)', item= `AUGAAGCAAUAUUACGAACC` )
Marked response: 0.124

Exam item: # input sequence: `GACAAGCAAUAUUACGUGUU` ; wanted: its self-splicing fitness (ln)
Marked response: -2.21

Exam item: Could you tell me which self-splicing fitness (ln) is on file for `AAUUAGCAAUAUUACGCCAU` ?
Marked response: -1.04

Exam item: Fill in the blank: the reported self-splicing fitness (ln) of `GGAUAGCAAUAUUACGGACG` is ____.
Marked response: -0.693

Exam item: Fill in: self-splicing fitness (ln) of `UCAAAGCAAUAUUACGCCCU` is ___
Marked response: -0.887

Exam item: Query: self-splicing fitness (ln); subject: `GUCGAGCAAUAUUACGCGUA`
Marked response: -0.913

Exam item: Suppose we examine the sequence `AUGGAGCAAUAUUACGGUAU` ; what self-splicing fitness (ln) value has been reported?
Marked response: -1.32

Exam item: Please give the measured self-splicing fitness (ln) for this sequence: `CAUGAGCAAUAUUACGGAUG`
Marked response: -2.01

Exam item: Requested read-out: self-splicing fitness (ln). Entry: `CUAGAGCAAUAUUACGGCAC`
Marked response: -0.856

Exam item: # self-splicing fitness (ln) lookup, item `CUGGAGCAAUAUUACGGCCU`
Marked response: -1.85

Exam item: Tell me the measured self-splicing fitness (ln) of `GUGGAGCAAUAUUACGCUGG` , please.
Marked response: -2.41

Exam item: So what's the measured self-splicing fitness (ln) for this one? `CGAUAGCAAUAUUACGCGCC`
Marked response: 0.215

Exam item: Request the reported self-splicing fitness (ln) associated with `GAGUAGCAAUAUUACGGUGC`
Marked response: 0.00945

Exam item: Reported self-splicing fitness (ln), sequence `GCACAGCAAUAUUACGCGUC` : ____
Marked response: -0.646

Exam item: Tell me the measured self-splicing fitness (ln) of `GAGGAGCAAUAUUACGAUGA` , please.
Marked response: -1.42

Exam item: # query: self-splicing fitness (ln) of entry `CGAAAGCAAUAUUACGGGGU`
Marked response: -1.94

Exam item: Entry `CAAGAGCAAUAUUACGAUAG` has what self-splicing fitness (ln)?
Marked response: -0.239

Exam item: Which self-splicing fitness (ln) value belongs to `ACAGAGCAAUAUUACGUUUA` ?
Marked response: -3.24

Exam item: Given `ACCCAGCAAUAUUACGCCGG` , state its recorded self-splicing fitness (ln).
Marked response: -2.96

Exam item: Which self-splicing fitness (ln) value is on record for `CGUCAGCAAUAUUACGCAGG` ?
Marked response: -1.69

Exam item: Looking for the measured self-splicing fitness (ln) of `CAUCAGCAAUAUUACGAGGG` , can you help?
Marked response: -0.928

Exam item: Which self-splicing fitness (ln) is listed for `CCUGAGCAAUAUUACGGCAC` ?
Marked response: -2.23

Exam item: Please report the recorded self-splicing fitness (ln) for `CUUGAGCAAUAUUACGUCGG` .
Marked response: -1.04

# credit: the supplement of paper PMC7877785
